# Lookup of reported self-cleavage keyed by entry
B1: CPEB3 Ribozyme (parent)
chain: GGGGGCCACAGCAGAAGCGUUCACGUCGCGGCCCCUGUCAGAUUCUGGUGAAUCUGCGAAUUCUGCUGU

Variants of: B1
Assay: self-cleavage, relative activity (ratio to wild type); higher = more cleavage; co-transcriptional
Number only, please.

Consider the worked cases shown below.
A60G U64G :: 0.493
A15C U69G :: 1.02
C7G U69A :: 0.728
C18A G58C :: 0.193
G41U A42G :: 0.777
C22A C45U :: 0.158

q: Identify measured self-cleavage corresponding to A10G C22A
a: 0.141

q: Give a short answer stating reported self-cleavage for C33A U61G .
a: 0.5

q: Supply recorded self-cleavage for C27A G68C here.
a: 0.765

q: Could you please provide reported self-cleavage for C33G U67A ? Thanks!
a: 0.857

q: Entry G30C U62C needs its self-cleavage filled in; supply it.
a: 0.424
